Assay notes: small molecules captured by biotinylated probe aFGF10 – biochemical, small-molecule microarray, fluorescence 635/667, stem cell growth factor project, primary screen (AID 1071);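 further: score merges 667 nm spot intensity and signal to noise from triplicate slides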
Stated conditions: higher = more signal
Param threshold (1) applies to composite z-score; output YES when value >= threshold, NO when value < threshold.

Examples from the recorded data:
{"Molecule": "COCCOC(=O)N1C(=O)[C@@]2(c3cc(C#CCC(C(=O)OC)C(=O)OC)ccc31)[C@H](c1ccc(OCCO)cc1)N1[C@H](c3ccccc3)[C@H](c3ccccc3)OC(=O)[C@H]1[C@@H]2C(=O)NC[C@H](O)c1ccccc1", "Assigned class": "YES"}
{"Molecule": "COc1ccc([Si](C)(C)[C@@H]2[C@@H](CCO)O[C@]3(C(=O)N(Cc4cccc(N(C=O)c5ccccc5)c4)c4ccccc43)[C@H]2C)cc1", "Assigned class": "NO"}
{"Molecule": "[N-]=[N+]=NCc1ccccc1[C@@H]1OC(c2ccc(OCCCO)cc2)=N[C@]1(Cc1ccccc1)C(=O)O", "Assigned class": "YES"}
{"Molecule": "O=C1C2C=CC(C(O)c3ccccn3)N(Nc3ccccc3F)C2C(=O)N1c1ccccc1 (stereo not drawn)", "Assigned class": "NO"}

Item CC(C)(C)OC(=O)CC[C@]1(C(=O)NCC(O)CO)N=C(c2ccc(OCCCO)cc2)O[C@H]1c1ccccc1CN=[N+]=[N-] (stereo partly drawn) with composite z-score of 1 or above?
NO

Check the entry C=CC[C@@]1(C(N)=O)N=C(c2ccc(OCCCO)cc2)O[C@@H]1c1ccccc1N=[N+]=[N-] : does composite z-score equal or exceed 1?
YES

Has O=C1OCCC/C=C\[C@H]2OC34C=CCN(CCN5CCOCC5)C(=O)[C@H]3N(CCO)C(=O)[C@@H]4C12 (stereo partly drawn) a recorded composite z-score greater than or equal to 1?
NO

###

Test system: Human papillomavirus type 1a protein E7 (residues 44-93)
Assay notes: small molecules binding HPV E7 44-93 – biochemical, small-molecule microarray, residues 44-93, 635 nm fluorescence, primary screen (AID 1108);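 further: E7 fragment applied at 1 µg/mL in TBST for 1 h at 4 C; score combines spot fluorescence with its signal to noise ratio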
Stated conditions: fluorescence 635 nm, higher = more signal
Decision: composite z-score compared against 0.4; not below it gives Criterion met, below it gives Criterion not met.

{"Compound": "O=C1C[C@@](C(=O)O)(c2ccc([N+](=O)[O-])cc2)[C@@H](c2ccc(CO)cc2I)N1C1CCCCC1", "Assigned class": "Criterion not met"}
{"Compound": "C=CCC(OC(C)=O)[C@@H]1[C@@H](N(Cc2ccc(-c3ccccc3)cc2)C(=O)c2ccc(C)cc2)c2cc(OCCCO)ccc2N1C(=O)Cc1ccc(OC)cc1 (some centres not stated)", "Assigned class": "Criterion met"}
{"Compound": "COc1cc2c(cc1O)C(c1ccc(CN3CCCC3)cc1)N(Cc1sc3ccccc3c1Cl)CC2 (configuration not stated)", "Assigned class": "Criterion met"}
{"Compound": "CCOC(=O)C[C@H]1[C@H](OC(=O)c2ccc(C(=O)c3ccccc3)cc2)[C@@H](NC(=O)c2ccc3ccccc3n2)c2cc(OCCCO)ccc2N1C(=O)c1ccc2ccccc2n1", "Assigned class": "Criterion met"}
{"Compound": "CCCC[C@H]1OB(O)C[C@H]2C1=C(COc1ccccc1)C[C@H]1C(=O)N(Cc3ccccc3)C(=O)[C@H]12", "Assigned class": "Criterion met"}
{"Compound": "CC(C)C[C@@H]1NC(=O)[C@@H]2C[C@H](C(=O)NCCCCN(C)C)[C@H](c3ccc(O)cc3)N2C1=O", "Assigned class": "Criterion not met"}

Let's switch to this compound now.
Does COCCOC(=O)N1C(=O)[C@@]2(c3cc(C#CCC(C(=O)OC)C(=O)OC)ccc31)[C@H](c1ccc(OCCO)cc1)N1[C@H](c3ccccc3)[C@H](c3ccccc3)OC(=O)[C@H]1[C@@H]2C(=O)NC[C@H](O)c1ccccc1 have a reported composite z-score of at least 0.4?
Criterion met
